assayComment: self-splicing fitness, log relative to wild type (ln ratio); higher = more splicing; Tetrahymena group I intron in knt gene, E. coli kanamycin selection, DiMSum; sequences stand for … in CUCUCU…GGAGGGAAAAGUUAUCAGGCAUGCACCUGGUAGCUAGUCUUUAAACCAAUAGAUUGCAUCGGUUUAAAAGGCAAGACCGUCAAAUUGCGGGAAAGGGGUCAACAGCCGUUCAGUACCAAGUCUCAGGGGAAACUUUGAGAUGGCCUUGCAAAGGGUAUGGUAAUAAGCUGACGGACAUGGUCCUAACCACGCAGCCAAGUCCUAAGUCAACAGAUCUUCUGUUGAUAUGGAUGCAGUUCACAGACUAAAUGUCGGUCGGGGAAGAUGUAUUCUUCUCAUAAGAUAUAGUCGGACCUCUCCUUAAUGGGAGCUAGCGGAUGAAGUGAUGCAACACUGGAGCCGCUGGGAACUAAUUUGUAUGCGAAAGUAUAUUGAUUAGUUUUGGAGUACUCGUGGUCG;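 also: selection with 25 µg/mL kanamycin versus none on LB agar overnight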
conditionDescription: 37 °C
recordedEndpoint: self-splicing fitness (ln)
Give a plain numeric answer without units written out.

Worked cases, answers included:
>  <sequenceString>
ACCUAGCAAUAUUACGGUCC

>  <recordedEndpoint>
self-splicing fitness (ln)

>  <val>
-2

$$$$
>  <sequenceString>
AAUAAGCAAUAUUACGGCGG

>  <recordedEndpoint>
self-splicing fitness (ln)

>  <val>
-0.865

$$$$
>  <sequenceString>
ACGAAGCAAUAUUACGACAG

>  <recordedEndpoint>
self-splicing fitness (ln)

>  <val>
-0.583

$$$$
>  <sequenceString>
GAUAAGCAAUAUUACGGAUU

>  <recordedEndpoint>
self-splicing fitness (ln)

>  <val>
-1.91

$$$$
>  <sequenceString>
UGUAAGCAAUAUUACGUGAU

>  <recordedEndpoint>
self-splicing fitness (ln)

>  <val>
-2.05

$$$$
>  <sequenceString>
AGAGAGCAAUAUUACGUAGU

>  <recordedEndpoint>
self-splicing fitness (ln)

>  <val>
-2.47

$$$$
>  <sequenceString>
GUUUAGCAAUAUUACGGGAA

>  <recordedEndpoint>
self-splicing fitness (ln)

>  <val>
-2.04

$$$$
>  <sequenceString>
CCCUAGCAAUAUUACGCCAA

>  <recordedEndpoint>
self-splicing fitness (ln)

>  <val>
-2.74

$$$$

Query block: Fill in self-splicing fitness (ln) for record AAGGAGCAAUAUUACGUGGU
Result block: -1.36

###

assayComment: self-splicing fitness, log relative to wild type (ln ratio); higher = more splicing; Tetrahymena group I intron in knt gene, E. coli kanamycin selection, DiMSum; sequences stand for … in CUCUCU…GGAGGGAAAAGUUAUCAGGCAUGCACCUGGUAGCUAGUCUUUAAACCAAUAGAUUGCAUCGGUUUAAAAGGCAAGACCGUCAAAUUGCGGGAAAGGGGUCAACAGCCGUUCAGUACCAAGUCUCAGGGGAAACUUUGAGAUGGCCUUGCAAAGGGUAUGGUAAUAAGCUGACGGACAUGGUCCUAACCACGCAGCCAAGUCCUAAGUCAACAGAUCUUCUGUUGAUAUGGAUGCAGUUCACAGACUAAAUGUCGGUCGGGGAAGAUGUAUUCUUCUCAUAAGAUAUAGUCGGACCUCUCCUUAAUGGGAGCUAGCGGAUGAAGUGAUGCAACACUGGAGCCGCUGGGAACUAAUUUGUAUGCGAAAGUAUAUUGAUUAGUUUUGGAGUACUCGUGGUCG
conditionDescription: 37 °C
Collected self-splicing fitness (ln) values appear next to each entry.
Give a plain numeric answer without units written out.

Worked cases, answers included:
>  <sequenceString>
UUCAAGCAAUAUUACGUGUG

>  <recordedEndpoint>
self-splicing fitness (ln)

>  <val>
-0.551

$$$$
>  <sequenceString>
CGCCAGCAAUAUUACGGUGU

>  <recordedEndpoint>
self-splicing fitness (ln)

>  <val>
-2.84

$$$$
>  <sequenceString>
AGGCAGCAAUAUUACGCAGU

>  <recordedEndpoint>
self-splicing fitness (ln)

>  <val>
-1.55

$$$$

Query block: Fill in self-splicing fitness (ln) for record CCCAAGCAAUAUUACGUAGG
Result block: -1.56

Query block: Fill in self-splicing fitness (ln) for record UCUCAGCAAUAUUACGGAAA
Result block: -0.892

Query block: Fill in self-splicing fitness (ln) for record ACUUAGCAAUAUUACGCUAG
Result block: -1.72

Query block: Fill in self-splicing fitness (ln) for record AAGUAGCAAUAUUACGCCCC
Result block: -1.22
